Value source: PubChem BioAssay AID624483

# test-protocol: compound fluorescence in toxin protease inhibitor counterscreen, primary screen, artefact control for toxin protease inhibitor project, biochemical, multiplex microsphere, HTS (AID 624483)
# condition-description: compound autofluorescence counterscreen, microsphere flow cytometry; hits give high values
About 11,000 (3.1%) of roughly 360,000 compounds were called active. Another 2% or so got no clear call; they are omitted. Shown is part of a subset that was picked to be rich in actives.
For each entry below, report its fluorescence intensity value.
Reply briefly: the number, and no unit.

Task: State the recorded fluorescence intensity for this entry: Cc1ccccc1N1CCN(CC(=O)NCc2ccc(Cl)cc2)CC1
Result: 4200

Task: State the recorded fluorescence intensity for this entry: CCOC(=O)C1=C(CSc2nnnn2C)N(C)C(=O)NC1c1ccccc1 (stereo not drawn)
Result: 4330

Task: State the recorded fluorescence intensity for this entry: O=C(CN1CCN(S(=O)(=O)c2ccc(Cl)s2)CC1)N1CCCCC1
Result: 2870

Task: State the recorded fluorescence intensity for this entry: CC(C)OC(=O)CN1C(=O)C(=O)c2ccccc21
Result: 22400

Task: State the recorded fluorescence intensity for this entry: CC(=O)c1c(O)n(C2CCCCCC2)c(=O)[nH]c1=O
Result: 2970

Task: State the recorded fluorescence intensity for this entry: CC1(C(=O)NCc2ccco2)Cc2c(-c3ccc4c(c3)OCO4)ccnc2O1 (stereo not drawn)
Result: 4110

Task: State the recorded fluorescence intensity for this entry: COc1ccc(-c2cc3c(c4c2ccn4C)C2CCC3C2)cn1 (stereo not drawn)
Result: 2710

Task: State the recorded fluorescence intensity for this entry: O=c1cc(C(F)(F)F)[nH]c(=O)n1C1CCCCC1
Result: 24200

Task: State the recorded fluorescence intensity for this entry: COCCNc1nc(NCc2ccc(NC(C)=O)cc2)c2sccc2n1
Result: 3410

Task: State the recorded fluorescence intensity for this entry: Cc1ccc(Nc2cc(=O)n(C3CCCCC3)c(=O)[nH]2)cc1C
Result: 3080

Task: State the recorded fluorescence intensity for this entry: CC(OC(=O)CN1C(=O)c2ccccc2C1=O)C(=O)c1ccccc1 (stereo not drawn)
Result: 8630

Task: State the recorded fluorescence intensity for this entry: COC(=O)c1ccc(OC(=O)c2cnccn2)cc1
Result: 4650

Task: State the recorded fluorescence intensity for this entry: O=c1oc2ccccc2c(CNc2ccccc2)c1[N+](=O)[O-]
Result: 3710

Task: State the recorded fluorescence intensity for this entry: CCN(CC)c1ccc(NC(=O)CCc2nnc3ccc(N4CCCCC4)nn23)c(C)c1
Result: 4470

Task: State the recorded fluorescence intensity for this entry: O=C(CN1CCN(S(=O)(=O)c2ccc(Cl)s2)CC1)NCc1ccc(Cl)cc1
Result: 19600

Task: State the recorded fluorescence intensity for this entry: CCN(Cc1nc2ccccc2c(=O)[nH]1)Cc1cc(=O)oc2cc(C)c(C)cc12
Result: 22700

Task: State the recorded fluorescence intensity for this entry: Cc1ccc(NC(=O)C2CCN(S(=O)(=O)c3ccc4c(c3)NC(=O)CO4)CC2)cc1C
Result: 6240

Task: State the recorded fluorescence intensity for this entry: CC1CCN(Cc2nc(-c3ccc(Cl)cc3)no2)CC1
Result: 6270

Task: State the recorded fluorescence intensity for this entry: COc1cc(C(O)c2nc(-c3cnn(C)c3)cs2)ccc1F (stereo not drawn)
Result: 3800

Task: State the recorded fluorescence intensity for this entry: CC(C)CCC(C)NC(=O)c1ccc2nccnc2c1 (stereo not drawn)
Result: 4050

Task: State the recorded fluorescence intensity for this entry: CCOC(=O)CN1C(=O)C(=O)c2cc(C)ccc21
Result: 3160

Task: State the recorded fluorescence intensity for this entry: CCN(CC(=O)NC(=O)NCc1ccccc1)Cc1nc2ccccc2c(=O)[nH]1
Result: 4790

Task: State the recorded fluorescence intensity for this entry: CCOC(=O)C1=C(CSc2nccn2C)NC(=O)NC1c1ccc(OC)cc1 (stereo not drawn)
Result: 24300
